TEST DESCRIPTION: LTI-291-002 multiple ascending dose study: plasma and CSF pharmacokinetics
Type: in vivo, human
MEASUREMENT CONTEXT: human, plasma, oral, 3 mg, 3 mg daily, dose 1, geometric mean; read-out: AUC0-last

SMILES DATA: CCCCCO[C@H]1CC[C@H](NC(=O)c2cnn3c(C)cc(C)nc23)CC1
AUC(0-t) [ng·h/mL]: 1040

====

TEST DESCRIPTION: LTI-291-002 multiple ascending dose study: plasma and CSF pharmacokinetics
Format: in vivo, human
MEASUREMENT CONTEXT: human, plasma, oral, 10 mg, 10 mg daily, dose 7, geometric mean

SMILES DATA: CCCCCO[C@H]1CC[C@H](NC(=O)c2cnn3c(C)cc(C)nc23)CC1
Cmax (ng/mL): 505
